System: phospholipase A2 (PLA2) contained in the supernatant fraction of rabbit heart
measurement_protocol: Inhibitory activity against phospholipase A2 (PLA2) contained in the supernatant fraction of rabbit heart
Format: biochemical
test_conditions: EGTA added, 37° C., 5 minutes
Description: A. Inhibitory activity against phospholipase A2 (PLA2) contained in the membrane fraction of rabbit heart or the supernatant fraction thereof (method) An NZW male rabbit was anesthetized by the intravenous administration of pentobarbital sodium to take out its heart. […] The protein concentrations of these fractions were each adjusted to 5 mg/ml as determined by Lowry method. […] The amount of ^14 C was determined with a liquid scintillation counter. […]
endpoint_label: PLA2 -inhibitory activity IC30, supernatant fraction (µM)

Below are worked cases with known answers.
- compound: "CN(C(=O)/C=C/C=C/c1ccc(O)c(O)c1)c1ccc(S(=O)(=O)NC2CCCCCC2)cc1"
  system_tested: "phospholipase A2 (PLA2) contained in the supernatant fraction of rabbit heart"
  test_result: 38
- compound: "CN(C(=O)/C=C/C=C/c1ccc(O)c(O)c1)c1ccc(S(=O)(=O)NC2CCc3ccccc3C2)cc1 (stereo not shown)"
  system_tested: "phospholipase A2 (PLA2) contained in the supernatant fraction of rabbit heart"
  test_result: 32

[I] CN(C(=O)/C=C/c1ccc(O)c(O)c1)c1ccc(S(=O)(=O)NC2Cc3ccccc3C2)cc1
[II] CN(C(=O)/C=C/c1ccc(-n2ccnc2)cc1)c1ccc(S(=O)(=O)NC2CCCCCC2)cc1
Quick check, higher PLA2 -inhibitory activity IC30, supernatant fraction between I and II ? Answer = label.
II
(II: 90 µM, I: 40 µM)

====

Test system: phospholipase A2 (PLA2) contained in the supernatant fraction of rabbit heart
measurement_protocol: Inhibitory activity against phospholipase A2 (PLA2) contained in the supernatant fraction of rabbit heart
Format: biochemical
test_conditions: EGTA added, 37° C., 5 minutes
Experimental: A. Inhibitory activity against phospholipase A2 (PLA2) contained in the membrane fraction of rabbit heart or the supernatant fraction thereof (method) An NZW male rabbit was anesthetized by the intravenous administration of pentobarbital sodium to take out its heart. […] The protein concentrations of these fractions were each adjusted to 5 mg/ml as determined by Lowry method. […] The amount of ^14 C was determined with a liquid scintillation counter. […]
endpoint_label: PLA2 -inhibitory activity IC30, supernatant fraction (µM)

- molecule: "CN(C(=O)/C=C/c1ccc(S(C)(=O)=O)cc1)c1ccc(S(=O)(=O)NC2CCCCN(Cc3ccccc3)C2)cc1 (racemic)"
  system_tested: "phospholipase A2 (PLA2) contained in the supernatant fraction of rabbit heart"
  test_result: 61
- molecule: "CN(C(=O)/C=C/c1ccc(O)cc1)c1ccc(S(=O)(=O)NC2CCCCCC2)cc1"
  system_tested: "phospholipase A2 (PLA2) contained in the supernatant fraction of rabbit heart"
  test_result: 46
- molecule: "CN(C(=O)/C=C/c1ccc(O)cc1)c1ccc(S(=O)(=O)NC2Cc3ccccc3C2)cc1"
  system_tested: "phospholipase A2 (PLA2) contained in the supernatant fraction of rabbit heart"
  test_result: 46

====

Tested on: phospholipase A2 (PLA2) contained in the supernatant fraction of rabbit heart
measurement_protocol: Inhibitory activity against phospholipase A2 (PLA2) contained in the supernatant fraction of rabbit heart
Assay type: biochemical
test_conditions: EGTA added, 37° C., 5 minutes
endpoint_label: PLA2 -inhibitory activity IC30, supernatant fraction (µM)

These solved cases illustrate the format of a correct answer.
- smiles_data: "CN(C(=O)/C=C/c1ccc(C#N)cc1)c1ccc(S(=O)(=O)NC2CCCCCC2)cc1"
  unit_descriptor: "µM"
  test_result: 68
- smiles_data: "CN(C(=O)/C=C/c1ccc(C#N)cc1)c1ccc(S(=O)(=O)NC2CCN(Cc3ccccc3)CC2)cc1"
  unit_descriptor: "µM"
  test_result: 59

[a] CN(C(=O)/C=C/c1ccc(O)c(O)c1)c1ccc(S(=O)(=O)NC2CCCCCC2)cc1
[b] CN(C(=O)/C=C/c1ccc(S(C)(=O)=O)cc1)c1ccc(S(=O)(=O)N2CCCN(CC3CCCCC3)CC2)cc1
Of a and b , which one carries the higher reported PLA2 -inhibitory activity IC30, supernatant fraction? Give the chosen item's label as your response.
b
(b: 92 µM, a: 56 µM)
